study system: Human adrenergic α2A receptor (Homo sapiens, UniProt P08913)
Sequence (P08913 whole entry): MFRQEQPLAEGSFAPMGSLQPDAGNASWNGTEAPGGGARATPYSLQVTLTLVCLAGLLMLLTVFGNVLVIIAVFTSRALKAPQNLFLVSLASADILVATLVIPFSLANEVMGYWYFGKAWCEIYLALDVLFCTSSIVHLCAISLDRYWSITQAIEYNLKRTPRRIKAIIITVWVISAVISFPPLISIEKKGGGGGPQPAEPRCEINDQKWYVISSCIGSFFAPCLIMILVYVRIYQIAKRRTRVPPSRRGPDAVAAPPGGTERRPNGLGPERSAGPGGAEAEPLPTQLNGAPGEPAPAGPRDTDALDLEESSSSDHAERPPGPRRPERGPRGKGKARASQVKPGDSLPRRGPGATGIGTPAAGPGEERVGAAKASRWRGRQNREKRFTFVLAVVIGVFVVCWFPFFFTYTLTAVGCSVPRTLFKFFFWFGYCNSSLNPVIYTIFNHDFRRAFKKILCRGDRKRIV
method notes: Radioligand binding, adrenergic α2A (Protocol Group B)
Set-up: purchased Milipore (Millipore)
test conditions: 0.1 μM compound; Protocol Group B; read-out: Percentage inhibition of ligand binding, Adrenergic α2A (0.1 μM)
Reported inhibition at 0.1 µM values for the following compounds.
measured parameter: inhibition at 0.1 µM (%)

- CCCOC(Cn1c2c(c3cc(C)ccc31)CN(C)CC2)c1ccncc1 (single isomer, unassigned) [42a]: 37
- Cc1cc(F)cc2c3c(n(CC(C)(O)c4cccnc4)c12)CC1CCCN1C3 (single isomer, unassigned) [76d]: 24
- Cc1ccc2c(c1)c1c(n2CC(C)(O)c2ccc(N)nc2)CCN(C)C1 (centres unmarked) [compound 47]: 33
- Cc1cc2c3c(n(CC(O)c4ccncc4)c2cc1Cl)CCN1CCCC31 (centres unmarked) [compound 21]: 78
- Cc1ccc2c(c1)c1c(n2CC(C)(O)c2ccc(C(=O)N(C)CC3CC3)nc2)CCN(C)C1 (centres unmarked) [compound 33]: -10
- Cc1ccc2c(c1)c1c(n2CC(O)c2cccnc2)C(F)(F)CN(C)C1 (centres unmarked) [compound 30]: -18
- CN1CCc2c(c3c(Cl)ccc(Cl)c3n2CC(O)c2cccnc2)C1 (centres unmarked) [Compound No. 17]: 10
- Cc1ccc2c(c1)c1c(n2CC(C)(O)c2cccnc2)CC2CCC1N2C (single isomer, unassigned) [101a]: 7
